- System: K4 kissing-loop RNA reporter;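 note: bound reporter read as fluorescence of individual clusters on recovered sequencing chips by microscopy, with normalized cluster intensities fitted with a binding model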
- PROTOCOL SUMMARY: apparent KD of K4 kissing-loop reporter; higher = weaker reporter binding
- PARTICULARS: Eterna round: R107; input ligand: FMN 200 uM
The sequences listed here are annotated with their apparent KD of K4 kissing-loop reporter.
Lab book: enter the figure in nM, no units written.

INSERT INTO assay_data (primary_sequence, study_system, metric_name, test_value) VALUES
  ('AGCAGUCCAGGAUCGAAAGAUCCUGAGGUCCGAGGACCGGUACGGCCGCCACUCGGAGUGAUGUUCCGAAGACUGCAAAAUAAAA [#SwitchBubble 5]', 'K4 kissing-loop RNA reporter', 'apparent KD of K4 kissing-loop reporter', 302),
  ('UGUGUUUACCUGACUCAGUGAUGUUGAGAAGGAGCGUGCAAAAGCACAGGUAGGUCGCUCAACCUAAAUUCAGGUGAGCACUAAA', 'K4 kissing-loop RNA reporter', 'apparent KD of K4 kissing-loop reporter', 270),
  ('UUAGUAUAGAGAGGAUAUACCUUCCAGUGAUGUUGGAUAGAUGAAUUUAAUCAUCAAGCAUAGCUUGUAGAAGGCUCUAUACAUU [AK1 SS FMN B]', 'K4 kissing-loop RNA reporter', 'apparent KD of K4 kissing-loop reporter', 373),
  ('GGUCCGCACAUGAGUGAUGUUCAUGUAGAUACCAGUAUCGAAAGAUACCCUUGGCAGCUACGGCACGGACCGGCGGGAAACCGCC', 'K4 kissing-loop RNA reporter', 'apparent KD of K4 kissing-loop reporter', 213),
  ('AUGGUAUUGCGAGGAUAUCCUUCAAAUGUGACACUAACGGCAGUGAUGUUGCCGGCGUCUUUUUGAGGAGAAGGCGCGGUGUUAU [Exclusion FMN B GF 24]', 'K4 kissing-loop RNA reporter', 'apparent KD of K4 kissing-loop reporter', 114);

We next turn to a different sequence, shown below.
Asked: # get_value(readout='apparent KD of K4 kissing-loop reporter', item= AGAUAGGGCUGAAGGAGCGUCGGAAAAGAAAAGAUGAAAUCCAGUGAUGUUGGAUAAAUCCGACAGGUAGGUCGCAGUUUUAUGA [#01 K4 Arginine B Same State] )
Given back: 126

---

- Tested on: MS2 coat protein
- PROTOCOL SUMMARY: apparent KD of MS2 coat protein; higher = weaker reporter binding
- PARTICULARS: Eterna round: R107; input ligand: tryptophan 2.4 mM
Outcome: yes for apparent KD of MS2 coat protein of at least 30 nM; no for anything lower.

INSERT INTO results (primary_sequence, assigned_category) VALUES
  ('ACGUAUGUCAGAAGGAGCGUCAAUAACAUGAGGAUCACCCAUGUAUUACAUAGGUAUAAUAGACAGGUAGGUCGCUGAAUUCGAA [JR_SSArginiB_Sub022]', 'no'),
  ('CAGAACAUGAGGAUCACCCAUGUUAGGGAUACCAGCUCAGACAUGGGCCCUUGGCAGCUCUAUGGCUGACGAAAGUCAGCAUCUG [#16 SameState-TheophyllineA]', 'yes'),
  ('AAACGCCACGGAAGGAGCGACAUGAGGAUCACCCAUGUAGUUUUGGCGGAUGCACCCUCCUGUCAGGUAGGUCGCCGUGCGAUAA [XArg-B26]', 'yes'),
  ('UGAUUGAACGGAAGGAGCGUGUAAGAACAAGAACAUGAGGAUCACCCAUGUAUUAAUUUAACACAGGUAGGUCGCCGAGAGAUUG [11.D]', 'no'),
  ('UGCCGAGACGUGGAUUACCCAUGUACAGAAGGAGCGCCCGAAAGGGCAGGUAGGUCGCUGAGGACAUGAGGAUCACCCAUGUCGA', 'yes');

Asked: Check if apparent KD of MS2 coat protein >= 30 nM (inclusive). Item: GGCUAACAUGAGGAUCACCCAUGUAUUGAUACCAGUAUUUGAAAAUACCCUUGGCAGCAAAUGAAGAGCGUAGCAGGGUCGAUUA [theeternabot_sameState_MS2_Theo_A_7]
Given back: no

Asked: Identify whether the reported apparent KD of MS2 coat protein of the following sequence is 30 nM or greater: `UGCCUAGACGUGGAUUACCCGUGUACCGAAGGAGCGCCCGAAAGGGCAGGUAGGUCGCGGAGGACAUGAGGAUCACCCAUGUUUG`
Given back: yes

Asked: Textbook exercise: given the entry UUCUACAUGAGGAUCACCCAUGUGGGUGAUACCAGCACUUUUUGGUGCCCUUGGCAGCACAUGAGAAUGCCGUAAAAUCGGCGAU [Ceanteis] , state whether its apparent KD of MS2 coat protein is greater than or equal to 30 nM.
Given back: yes

Asked: Please tell me: is the sequence GGACUAACCAGAAGGAGCGGCACGCAGAAACUGCAAAUUCCUCCGCACGAGGAUCACCCGUGUCAGGUAGGUCGCUGGUUAGUCG [ArgBX 28] at or over 30 nM in terms of apparent KD of MS2 coat protein?
Given back: no

Asked: Decide: apparent KD of MS2 coat protein of AAGACAUGAGGAUCACCCAUGUGGAGGGAUACCAGCCUGUGUGUGGGCCCUUGGCAGCUUAAAUUUAAUUUAAUUAAAUAAAUUU [Same State - Theophylline A] >= 30 nM?
Given back: yes

Asked: // inclusive: apparent KD of MS2 coat protein at least 30 nM? input: GGGCGUGUGGUGCGGCGUGUUCCGCUCCGUCGAGGACCGGUACGGCCGCCACUCGACAUGAGGAUCACCCAUGUGCGAGCGCGCG [#1 Exclusion - Tryptophan A Attempt #8 (HarryS)]
Given back: no

Asked: Given the entry GAAGGAGAGUGAUCCACUCCUUCUCUGGAAGGAGCGAGCGAAAGCUCAGGUAGGUCGCCAGAAACAUGAGGAUCACCCAUGUAAU [(A)''-(M)'-(A)'-(Arg1)-(Arg2)-(M1)-(M2)_Design7] , answer whether its apparent KD of MS2 coat protein meets or surpasses 30 nM.
Given back: yes
